// data source = patent US20110262439A1

Target: T1, mutated murine c-MET antigen with human membrane-distal epitopes (extracellular domains fused to a truncated … (murine/human chimera))
T1 construct: also called cMET-8
T1 chain: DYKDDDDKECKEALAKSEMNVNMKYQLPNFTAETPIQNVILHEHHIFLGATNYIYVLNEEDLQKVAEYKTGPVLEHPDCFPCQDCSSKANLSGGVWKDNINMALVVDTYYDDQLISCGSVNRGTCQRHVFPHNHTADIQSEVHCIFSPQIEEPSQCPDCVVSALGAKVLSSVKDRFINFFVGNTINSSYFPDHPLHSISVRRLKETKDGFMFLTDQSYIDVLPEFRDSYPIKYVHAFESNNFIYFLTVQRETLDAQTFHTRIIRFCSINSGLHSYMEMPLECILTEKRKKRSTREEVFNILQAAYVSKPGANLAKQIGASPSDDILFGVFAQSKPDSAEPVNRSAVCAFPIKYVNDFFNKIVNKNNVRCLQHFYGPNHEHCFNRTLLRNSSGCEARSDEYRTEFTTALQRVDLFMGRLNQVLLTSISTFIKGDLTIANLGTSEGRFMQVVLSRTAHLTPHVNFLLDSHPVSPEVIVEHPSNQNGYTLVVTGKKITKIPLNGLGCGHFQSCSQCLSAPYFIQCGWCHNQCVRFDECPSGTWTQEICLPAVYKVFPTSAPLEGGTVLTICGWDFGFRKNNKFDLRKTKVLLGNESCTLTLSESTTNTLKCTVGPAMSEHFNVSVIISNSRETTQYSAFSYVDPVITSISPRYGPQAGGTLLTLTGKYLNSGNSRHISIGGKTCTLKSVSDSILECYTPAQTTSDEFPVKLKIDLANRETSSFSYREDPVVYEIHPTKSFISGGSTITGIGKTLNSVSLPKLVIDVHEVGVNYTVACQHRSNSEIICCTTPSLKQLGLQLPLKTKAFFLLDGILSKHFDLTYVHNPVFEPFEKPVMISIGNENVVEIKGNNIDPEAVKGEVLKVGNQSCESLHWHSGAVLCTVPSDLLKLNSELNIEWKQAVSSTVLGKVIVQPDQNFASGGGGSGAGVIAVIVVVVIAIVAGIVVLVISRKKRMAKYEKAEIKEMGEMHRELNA
Assay: FACS, CHO transfectants, periplasmic preparation
quantity: binding result

ME06E10HL (scFv, murine anti-c-MET scFv; E. coli periplasmic preparation) scFv: EVQLLEQSGADLVRPGTSVKLSCKAAGYTFSRYWISWIRQRPGHGLEWIGEIYPGGGYGNYNENFKDKVTLTADTSSSTAYMQLSSLTSEDSAIYYCARSGYDYGSKYDYYGLDYWGQGTTVTVSSGGGGSGGGGSGGGGSELVMTQSPSSLSASLGERVSLTCRASQEISGYLSWLQQKPDGTIKRLIYAASTLDSGVPKRFSGSRSGSDYSLTISSLESEDFADYYCLQYASSPYTFGGGTKLEIKTGDYKDDDDKHHHHHH; no binding
ME06C6HL (scFv, murine anti-c-MET scFv; E. coli periplasmic preparation) scFv: EVQLLEQSGAELVRPGTSVKIPCKATGYTFSYYWIGWVKQRPGHGLEWIGDIYPGGGYSNYNEKFKGKATLTADTSSSTAYMQLSGLTSEDSAIYYCARSGYDYGSDYDYHGLDYWGQGTTVTVSSGGGGSGGGGSGGGGSELVLTQSPASLAVSLGQRATISCRASESVEYYGTSLMQWYQQKPGQPPKLLIYAASNVESGVPARFSGSGSGTDFSLNIHPVEEDDIAMYFCQQSRKVPYTFGGGTKLEIKTGDYKDDDDKHHHHHH; no binding
